test system: Mus musculus; assay: Dose normalized AUC in C57BL/6 mouse at 1 mg/kg, iv and 2 mg/kg, po; type: ADME, organism-based; conditions: in vivo
RECORDED ENDPOINT: AUC/dose (µM·h/mpk)

* COc1ccc2ncc(F)c(C[C@H](O)C34CCC(NCc5ccc6c(n5)NC(=O)CO6)(CC3)CO4)c2n1.Cl | 0.76
* COc1ccc2ncc(F)c(C[C@@H](O)C34CCC(NCc5ccc6c(n5)NC(=O)CO6)(CC3)CO4)c2n1.Cl | 0.68
* COc1ccc2ncc(F)c(CCC34CCC(NCc5ccc6c(n5)NC(=O)CO6)(CC3)CO4)c2n1.Cl | 0.98

---

test: Inhibition of Escherichia coli topoisomerase 4
pIC50: −log10 of the molar value.
# pIC50 values compiled below
RECORDED ENDPOINT: pIC50

• COc1ccc2ncc(F)c(CCC34CCC(NCc5ccc6c(n5)NC(=O)CO6)(CC3)CO4)c2n1.Cl = 6.70
• COc1ccc2ncc(F)c(C[C@H](O)C34CCC(NCc5ccc6c(n5)NC(=O)CO6)(CC3)CO4)c2n1.Cl = 6.30
